- SETTINGS: buffer; pH 7.4; 200.0 µM
Recorded solubility kinetic, one value per entry.
Just the number in µg/mL, nothing appended.

Task item: Request the reported solubility kinetic associated with `Cc1cc(=O)oc2cc(OCC(=O)N3c4ccccc4NC(=O)C3(C)C)ccc12`
Reply: 17.3

Task item: Please give the result for `Cc1ccc(NC(=O)CN2CCc3ccccc3C2)cc1C` too.
Reply: 18.8

Task item: Here is the next compound: `CN(C)S(=O)(=O)c1ccc(C(=O)OCC(=O)NC(=O)NC2CCCC2)cc1`
Reply: 7.9

Task item: Quick one: `CCCCN(CC(=O)NCc1ccc(F)cc1)C(=O)c1ccco1`
Reply: 48.5

Task item: Let us now turn to `Cc1cccc(SCC(=O)Nc2ccc3c(c2)OCCO3)c1`
Reply: 36.4

Task item: // next record `COC(=O)c1ccc(CO/N=C/c2ccccc2OC)cc1`
Reply: 2.6
